B1: ACSBG2 (parent)
chain: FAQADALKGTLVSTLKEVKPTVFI

# Variants of: B1
# EXPERIMENTAL_DETAILS: protein stability index of a GFP-peptide fusion (GPS, HEK-293T) (PSI 1-6); higher = more stable;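 also: lentivirally expressed fusions sorted by FACS into six bins by GFP to DsRed ratio, PSI derived from sequencing read proportions per bin multiplied by bin number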
# CONDITION_LABEL: c terminus: a fixed tail appended
Entries and their protein stability index
Respond using a number only.

• T14N = 2.26

Ask | Give the reported protein stability index for this variant. L15M
Reply | 1.6

Ask | Give the reported protein stability index for this variant. E17M
Reply | 2.29

Reference source for all entries: the supplement of paper PMC10567573
